src = PubChem BioAssay (NCATS)

Assay: Quantitative High-Throughput drug screen in 47 multiple myeloma cell lines against the NCATS MIPE library collection: Delta47_JCRB cell viability assay (AID 1918925; note: nearly all actives have a fitted effect of over 45% in size; note: potency is the fitted concentration of half-maximal effect)
Conditions: Delta47 myeloma viability, CellTiter-Glo ATP, 48 h; series mostly up to 45.8 µM
Records with an inconclusive call do not appear. The source made the active and inactive calls. Calls come from the whole dose curve; as a rule, active = well fitted cell-killing curve with a large enough effect; inconclusive = small, poorly fitted or top-dose-only effect, or effect the other way; inactive = no such curve, though single readings can be large or run the other way.
RESULT_TYPE: Potency

{"SAMPLE_SMILES": "CCCCOc1ccc(C(=O)Nc2ccc(F)cc2F)cc1", "RESULT": "inactive"}
{"SAMPLE_SMILES": "COc1ccc(C(C)=O)c(O)c1", "RESULT": "inactive"}
{"SAMPLE_SMILES": "CC(C)(N)c1ccc(-c2nc3ccccc3nc2-c2ccccc2)cc1", "RESULT": "5.9 µM (active)"}
{"SAMPLE_SMILES": "CC(C)c1cc(C(C)C)c(CC(=O)NS(=O)(=O)Oc2c(C(C)C)cccc2C(C)C)c(C(C)C)c1", "RESULT": "inactive"}
{"SAMPLE_SMILES": "CC(=O)O[C@]1(C(C)=O)CC[C@H]2[C@@H]3C=C(C)C4=CC(=O)CC[C@]4(C)[C@@H]3CC[C@@]21C", "RESULT": "8.33 µM (active)"}
{"SAMPLE_SMILES": "COc1cccc2c1C(=O)c1c(O)c3c(c(O)c1C2=O)C[C@@](O)(C(=O)CO)C[C@H]3O[C@H]1C[C@H](N)[C@H](O)[C@H](C)O1", "RESULT": "0.148 µM (active)"}
{"SAMPLE_SMILES": "O=c1[nH]c(=O)n([C@H]2C[C@@H](O)[C@@H](CO)O2)cc1C=CBr", "RESULT": "inactive"}
{"SAMPLE_SMILES": "NC[C@H]1O[C@H](O[C@H]2[C@@H](O)[C@@H](O[C@H]3O[C@H](CO)[C@@H](O)[C@H](N)[C@@H]3O)[C@H](N)C[C@@H]2N)[C@H](N)C[C@H]1O", "RESULT": "inactive"}
